test system: DoTc2-4510 (Cervical Carcinoma); experiment: Bliss excess, mean over the matrix (fraction); higher = more synergy;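 also: after 72 h of two-drug dosing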
Assign true (1) to entries whose Bliss excess meets or exceeds -0.004; assign false (0) to the rest.

>  <COMPOUND>
Cc1c2c(nn1C)CSCc1cc(n(C)n1)CSc1cc(c3ccccc3c1)OCCCc1c(C(=O)O)n(C)c3c-2c(Cl)ccc13 [AZD5991] + CN(C)CCCOc1ccc(-c2ccc3ncc4c(c3c2)n(C2CCOCC2)c(=O)n4C)cn1 [AZD0156] (first compound max 1 µM, 7x7, partner max 1 µM)

>  <DISCRETE LABEL>
true (1)

$$$$
>  <COMPOUND>
COc1nnc2ccc(N3CCC(c4ccc(OCCN5CCN(C)C(=O)[C@H]5C)cc4)CC3)nn12 [AZD5153] + CC1(C)CCC(CN2CCN(c3ccc(C(=O)NS(=O)(=O)c4ccc(NCC5CCOCC5)c([N+](=O)[O-])c4)c(Oc4cnc5[nH]ccc5c4)c3)CC2)=C(c2ccc(Cl)cc2)C1 [Venetoclax] (first compound max 1 µM, 7x7, partner max 1 µM)

>  <DISCRETE LABEL>
false (0)

$$$$
>  <COMPOUND>
C[C@@H]1COCCN1c1cc(C2([S@](C)(=N)=O)CC2)nc(-c2ccnc3[nH]ccc23)n1 [AZD6738] + O=C(c1cc(Cc2n[nH]c(=O)c3ccccc23)ccc1F)N1CCN(C(=O)C2CC2)CC1 [Olaparib] (first compound max 10 µM, 7x7, partner max 10 µM)

>  <DISCRETE LABEL>
true (1)

$$$$
>  <COMPOUND>
Cc1c2c(nn1C)CSCc1cc(n(C)n1)CSc1cc(c3ccccc3c1)OCCCc1c(C(=O)O)n(C)c3c-2c(Cl)ccc13 [AZD5991] + Nc1ccn([C@@H]2O[C@H](CO)[C@@H](O)C2(F)F)c(=O)n1 [Gemcitabine] (first compound max 1 µM, 7x7, partner max 0.3 µM)

>  <DISCRETE LABEL>
false (0)

$$$$
>  <COMPOUND>
COc1cc2c(cc1OCCCCCOc1cc3c(cc1OC)C(=O)N1C=C(C)C[C@H]1C=N3)N=C[C@@H]1CC(C)=CN1C2=O [SG3199] + O=C(c1cc(Cc2n[nH]c(=O)c3ccccc23)ccc1F)N1CCN(C(=O)C2CC2)CC1 [Olaparib] (first compound max 0.001 µM, 7x7, partner max 10 µM)

>  <DISCRETE LABEL>
false (0)

$$$$
>  <COMPOUND>
CC1(C)CCC(CN2CCN(c3ccc(C(=O)NS(=O)(=O)c4ccc(NCC5CCOCC5)c([N+](=O)[O-])c4)c(Oc4cnc5[nH]ccc5c4)c3)CC2)=C(c2ccc(Cl)cc2)C1 [Venetoclax] + Cc1cc2ncnn2cc1Nc1ncc2c(n1)n(C1CCOCC1)c(=O)n2C [AZD7648] (first compound max 1 µM, 7x7, partner max 10 µM)

>  <DISCRETE LABEL>
false (0)

$$$$
>  <COMPOUND>
COc1cccc(OCCCN)c1-c1cc(Nc2cnc(C#N)cn2)n[nH]1 [Prexasertib] + C[C@@H]1COCCN1C2=NC(=NC(=C2)C3(CC3)[S@](=N)(=O)C)C4=C5C=CNC5=NC=C4 [AZD6738] (first compound max 1 µM, 7x7, partner max 10 µM)

>  <DISCRETE LABEL>
false (0)

$$$$
>  <COMPOUND>
N#Cc1cnc(Nc2cc(NC[C@H]3CNCCO3)c(C(F)(F)F)cn2)cn1 [SRA737] + CCc1c2c(nc3ccc(O)cc13)-c1cc3c(c(=O)n1C2)COC(=O)[C@]3(O)CC [SN-38] (first compound max 10 µM, 7x7, partner max 0.3 µM)

>  <DISCRETE LABEL>
true (1)

$$$$
>  <COMPOUND>
C[C@@H](c1ccc2nccn2c1)n1nnc2ncc(-c3cnn(C)c3)nc21 [Savolitinib] + Cc1c2c(nn1C)CSCc1cc(n(C)n1)CSc1cc(c3ccccc3c1)OCCCc1c(C(=O)O)n(C)c3c-2c(Cl)ccc13 [AZD5991] (first compound max 1 µM, 7x7, partner max 1 µM)

>  <DISCRETE LABEL>
false (0)

$$$$
>  <COMPOUND>
CC(=O)c1c(C)c2cnc(Nc3ccc(N4CCNCC4)cn3)nc2n(C2CCCC2)c1=O [Palbociclib] + Cc1c2c(nn1C)CSCc1cc(n(C)n1)CSc1cc(c3ccccc3c1)OCCCc1c(C(=O)O)n(C)c3c-2c(Cl)ccc13 [AZD5991] (first compound max 10 µM, 7x7, partner max 1 µM)

>  <DISCRETE LABEL>
false (0)

$$$$

* * *

Measured Bliss excess of individual entries
system: NCI-H82 (Small Cell Lung Carcinoma); test: Bliss excess, mean over the matrix (fraction); higher = more synergy

>  <COMPOUND>
Cc1cc2ncnn2cc1Nc1ncc2c(n1)n(C1CCOCC1)c(=O)n2C [AZD7648] + C[C@@H]1COCCN1C2=NC(=NC(=C2)C3(CC3)[S@](=N)(=O)C)C4=C5C=CNC5=NC=C4 [AZD6738] (first compound max 10 µM, 7x7, partner max 10 µM)

>  <Bliss excess>
-0.0596

$$$$
>  <COMPOUND>
COc1nnc2ccc(N3CCC(c4ccc(OCCN5CCN(C)C(=O)[C@H]5C)cc4)CC3)nn12 [AZD5153] + CCN(CCO)CCCOc1ccc2c(Nc3cc(CC(=O)Nc4cccc(F)c4)[nH]n3)ncnc2c1 [AZD2811] (first compound max 1 µM, 7x7, partner max 1 µM)

>  <Bliss excess>
-0.064

$$$$
>  <COMPOUND>
CS(=O)(=O)CCNCc1ccc(-c2ccc3ncnc(Nc4ccc(OCc5cccc(F)c5)c(Cl)c4)c3c2)o1 [Lapatinib] + Cn1cnc2c(F)c(Nc3ccc(Br)cc3Cl)c(C(=O)NOCCO)cc21 [Selumetinib] (first compound max 10 µM, 7x7, partner max 10 µM)

>  <Bliss excess>
-0.0082

$$$$
>  <COMPOUND>
Cn1cnc2c(F)c(Nc3ccc(Br)cc3Cl)c(C(=O)NOCCO)cc21 [Selumetinib] + CCN(CCO)CCCOc1ccc2c(Nc3cc(CC(=O)Nc4cccc(F)c4)[nH]n3)ncnc2c1 [AZD2811] (first compound max 10 µM, 7x7, partner max 1 µM)

>  <Bliss excess>
0.0317

$$$$

* * *

system: COLO-205 (Colorectal Carcinoma); assay: Bliss excess, mean over the matrix (fraction); higher = more synergy
Measured Bliss excess of individual entries

>  <COMPOUND>
Cc1cc2ncnn2cc1Nc1ncc2c(n1)n(C1CCOCC1)c(=O)n2C [AZD7648] + O=C(c1cc(Cc2n[nH]c(=O)c3ccccc23)ccc1F)N1CCN(C(=O)C2CC2)CC1 [Olaparib] (first compound max 10 µM, 7x7, partner max 10 µM)

>  <Bliss excess>
-0.0345

$$$$
>  <COMPOUND>
Cc1c2c(nn1C)CSCc1cc(n(C)n1)CSc1cc(c3ccccc3c1)OCCCc1c(C(=O)O)n(C)c3c-2c(Cl)ccc13 [AZD5991] + CC1(C)CCC(CN2CCN(c3ccc(C(=O)NS(=O)(=O)c4ccc(NCC5CCOCC5)c([N+](=O)[O-])c4)c(Oc4cnc5[nH]ccc5c4)c3)CC2)=C(c2ccc(Cl)cc2)C1 [Venetoclax] (first compound max 1 µM, 7x7, partner max 1 µM)

>  <Bliss excess>
-0.0335

$$$$
>  <COMPOUND>
CCN(CCO)CCCOc1ccc2c(Nc3cc(CC(=O)Nc4cccc(F)c4)[nH]n3)ncnc2c1 [AZD2811] + O=C(c1cc(Cc2n[nH]c(=O)c3ccccc23)ccc1F)N1CCN(C(=O)C2CC2)CC1 [Olaparib] (first compound max 1 µM, 7x7, partner max 10 µM)

>  <Bliss excess>
0.0075

$$$$
>  <COMPOUND>
Cc1c2c(nn1C)CSCc1cc(n(C)n1)CSc1cc(c3ccccc3c1)OCCCc1c(C(=O)O)n(C)c3c-2c(Cl)ccc13 [AZD5991] + CN(C)CCCOc1ccc(-c2ccc3ncc4c(c3c2)n(C2CCOCC2)c(=O)n4C)cn1 [AZD0156] (first compound max 1 µM, 7x7, partner max 1 µM)

>  <Bliss excess>
0.0261

$$$$

Sourced from the supplement of paper PMC11061612
